Molecular target: Aryl hydrocarbon receptor (Homo sapiens)
Experiment: qHTS assay to identify small molecule that activate the aryl hydrocarbon receptor (AhR) signaling pathway (AID 743085); also: nearly all actives have a fitted effect of over 15% in size;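 as to activation: HG2L7.5c1 human HepG2 liver cells with stably integrated DRE-driven firefly reporter; % is scaled to controls: 0 for no effect and ±100 for the full control effect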
Conditions: HepG2 AhR-luc (HG2L7.5c1), luciferase, 24 h; series mostly up to 70.3 µM
Inconclusive results are not listed. The source made the active and inactive calls. Calls follow the shape of the dose curve; as a rule, active = well fitted activation curve with a large enough effect in the repeat runs; inconclusive = weak or mixed curves; inactive = no such curve, though single readings can be large or run the other way.
Bench note: report the call from active, inactive

Exam item: Outcome? `CC/C=C\CCOC(=O)c1ccccc1O`
Marked response: inactive

Exam item: Outcome? `CC(=O)CC(=O)OC(C)(C)C`
Marked response: inactive

Exam item: Outcome? `C=CCCCCCCCCC(=O)OCCCC`
Marked response: inactive

Exam item: Outcome? `COC(=O)c1ccccc1C(=O)O`
Marked response: inactive

Exam item: Outcome? `CC(=O)Nc1ccc(OC(=O)c2ccccc2OC(C)=O)cc1`
Marked response: inactive

Exam item: Outcome? CN(C)CCOC(=O)C(c1ccccc1)C1(O)CCCC1 (configuration not stated)
Marked response: inactive

Exam item: Outcome? O=C=NCC1CCCC(CN=C=O)C1 (configuration not stated)
Marked response: inactive

Exam item: Outcome? `CCCCOCCOC(=O)COc1ccc(Cl)cc1Cl`
Marked response: inactive

Exam item: Outcome? CN1CCOC(c2ccccc2)c2ccccc2C1 (configuration not stated)
Marked response: inactive

Exam item: Outcome? CC(C)C1OCCN1CCOC(=O)NCCCCCCNC(=O)OCCN1CCOC1C(C)C (configuration not stated)
Marked response: inactive

Exam item: Outcome? `O=C(O)c1cc2ccccc2nc1C(=O)O`
Marked response: inactive

Exam item: Outcome? `Cc1ccc(N)cc1S(=O)(=O)O`
Marked response: inactive

Exam item: Outcome? CCCC(=O)OCCC(C)CCC=C(C)C (configuration not stated)
Marked response: inactive

Exam item: Outcome? CC1CCc2c(N3CCC(O)CC3)c(F)cc3c(=O)c(C(=O)O)cn1c23 (configuration not stated)
Marked response: inactive

Exam item: Outcome? `CC(C)OC(=O)OCOP(=O)(CO[C@H](C)Cn1cnc2c(N)ncnc21)OCOC(=O)OC(C)C`
Marked response: inactive

Exam item: Outcome? `CC(C)[C@H]1CC[C@H](C)C[C@@H]1O`
Marked response: inactive

Exam item: Outcome? CC(S)C(C)S (configuration not stated)
Marked response: inactive

Exam item: Outcome? `Cc1c(Cl)cccc1Cl`
Marked response: inactive

Exam item: Outcome? C=CC(=O)OCC1CCCO1 (configuration not stated)
Marked response: inactive

Exam item: Outcome? `CO/N=C(/C(=O)N[C@@H]1C(=O)N2C(C(=O)[O-])=C(C[n+]3ccn4ncccc43)CS[C@H]12)c1nsc(N)n1`
Marked response: inactive

Exam item: Outcome? `Cc1cccc(Cl)c1`
Marked response: inactive

Exam item: Outcome? `O=Cc1cc2ccccc2o1`
Marked response: inactive

Exam item: Outcome? `CCO`
Marked response: inactive

Exam item: Outcome? `C[C@@H](O)C(=O)O`
Marked response: inactive

Exam item: Outcome? OC1OCCOC1O (configuration not stated)
Marked response: inactive

Exam item: Outcome? `O=C(CN1CCNCC1)NC1CCCCC1`
Marked response: inactive

Exam item: Outcome? `Cc1ccccc1C(N)=O`
Marked response: inactive

Exam item: Outcome? CCCC(=O)Nc1ccc(OCC(O)CNC(C)C)c(C(C)=O)c1 (configuration not stated)
Marked response: inactive

Exam item: Outcome? CCOC(CN1CCN(CC(C)C(=O)c2ccccc2)CC1)c1ccccc1 (configuration not stated)
Marked response: inactive

Exam item: Outcome? `CCCCCCCCCCCCCBr`
Marked response: inactive

Exam item: Outcome? `CCO[Si](CC)(OCC)OCC`
Marked response: inactive

Exam item: Outcome? `c1ccc(-c2nn[nH]n2)cc1`
Marked response: inactive

Exam item: Outcome? `CCCCCCCCCOC(=O)c1ccccc1C(=O)OCCCCCCCCC`
Marked response: inactive

Exam item: Outcome? `C#CCN[C@@H]1CCc2ccccc21`
Marked response: inactive

Exam item: Outcome? `C=C(C)[C@@H]1CC=C(C)CC1`
Marked response: inactive

Exam item: Outcome? `COc1c2occc2c(OC)c2c(=O)cc(C)oc12`
Marked response: active

Exam item: Outcome? `c1ccc(B(c2ccccc2)c2ccccc2)cc1`
Marked response: active

Exam item: Outcome? `Nc1nnnn1-c1ccccc1`
Marked response: inactive

Exam item: Outcome? `CC(C)CO`
Marked response: inactive

Exam item: Outcome? `O=C(NCN1CCOCC1)c1cnccn1`
Marked response: inactive

Exam item: Outcome? `Cc1ccc(C(=O)O)cc1[N+](=O)[O-]`
Marked response: inactive

Exam item: Outcome? `CC(C)c1ccc(C=O)cc1`
Marked response: inactive

Exam item: Outcome? `CCC(=O)CC`
Marked response: inactive

Exam item: Outcome? O=C(O)CSCC(=O)NC1CCSC1=O (configuration not stated)
Marked response: inactive

Exam item: Outcome? `c1ccc2cnccc2c1`
Marked response: inactive

Exam item: Outcome? `COS(=O)(=O)O`
Marked response: inactive

Exam item: Outcome? `CCCCCCCCCCCCCCCCCC#N`
Marked response: inactive

Exam item: Outcome? `CC(=O)O[C@H]1C[C@@H]2CC[C@@]1(C)C2(C)C`
Marked response: inactive

Exam item: Outcome? `Cn1nnc2c(C(N)=O)ncn2c1=O`
Marked response: inactive

Exam item: Outcome? Cc1ccc(C(C)NC(=O)[C@@H](NC(=O)OC(C)C)C(C)C)cc1 (some centres not stated)
Marked response: inactive

Exam item: Outcome? `CN1C[C@@H]2C[C@H]1CN2c1cc2c(cc1F)c(=O)c(C(=O)O)cn2C1CC1`
Marked response: inactive

Exam item: Outcome? `C=CCCCC`
Marked response: inactive

Exam item: Outcome? CCCCCCCCCCCCCCC(=O)NC(CO)CCCCCCCCCCCCCC (configuration not stated)
Marked response: inactive

Exam item: Outcome? `CCCCCCCCCOC(=O)CCCCC(=O)OCCCCCCC`
Marked response: inactive

Exam item: Outcome? CCC(C)OC(C)CC (configuration not stated)
Marked response: inactive

Exam item: Outcome? `CC(C)COC(=O)c1ccccc1`
Marked response: inactive

Exam item: Outcome? CCCCCC(C)O (configuration not stated)
Marked response: inactive

###

Assay: qHTS assay to identify small molecule agonists of the NFkB signaling pathway - cell viability counter screen (AID 1159515); also: % is scaled to controls: 0 for no effect and ±100 for the full control effect; nearly all actives have a fitted effect of over 55% in size
Details: NFkB-bla ME-180 viability, CellTiter-Glo luminescence, 5 h; series mostly up to 61 µM
Results filed as inconclusive are left out. Activity calls are given as the source filed them. Calls follow the shape of the full dose curve.
OBSERVED_PROPERTY: activity, negative = cytotoxic

Past entries and their recorded results:
molecule=C=CCN1C[C@H](C(=O)N(CCCN(C)C)C(=O)NCC)C[C@@H]2c3cccc4[nH]cc(c34)C[C@H]21 observed_property="activity, negative = cytotoxic" reading=inactive
molecule=NCCOCCN observed_property="activity, negative = cytotoxic" reading=inactive
molecule=O=NN(CCCl)C(=O)NC1CCCCC1 observed_property="activity, negative = cytotoxic" reading=inactive
molecule="CC(=O)C1C(=O)C=C(C)OC1=O (configuration not stated)" observed_property="activity, negative = cytotoxic" reading=inactive
molecule="OCC1CCC(CO)CC1 (configuration not stated)" observed_property="activity, negative = cytotoxic" reading=inactive
molecule="OC[C@@H](O)C(O)[C@@H](O)CO (some centres not stated)" observed_property="activity, negative = cytotoxic" reading=inactive
molecule="CCCCOC(=O)C(C)O (configuration not stated)" observed_property="activity, negative = cytotoxic" reading=inactive
molecule=CSc1cnccn1 observed_property="activity, negative = cytotoxic" reading=inactive
molecule=CCCCOCCOC(=O)COc1ccc(Cl)cc1Cl observed_property="activity, negative = cytotoxic" reading=inactive
molecule=CC(C)OC(=O)OCOP(=O)(CO[C@H](C)Cn1cnc2c(N)ncnc21)OCOC(=O)OC(C)C observed_property="activity, negative = cytotoxic" reading=inactive

# molecule CC(=O)OC1CCCCC1C(C)(C)C (configuration not stated) ; its activity, negative = cytotoxic = inactive

# molecule `O=C(Cl)c1ccccc1[N+](=O)[O-]` ; its activity, negative = cytotoxic = inactive

###

Assay: qHTS assay to identify small molecule antagonists of the TGF-beta/Smad signaling pathway - cell viability counter screen (AID 1346824); also: % is scaled to controls: 0 for no effect and ±100 for the full control effect; nearly all actives have a fitted effect of over 50% in size
Conditions: SBE-bla HEK293T viability, CellTiter-Glo luminescence; series mostly up to 76.8 µM
Results filed as inconclusive are left out. Calls of active or inactive are those of the source. Calls follow the shape of the dose curve; as a rule, active = well fitted cell-killing curve with a large enough effect in the repeat runs; inconclusive = weak or mixed curves; inactive = flat fitted curve, though single readings scatter.
OBSERVED_PROPERTY: viability change, negative = cytotoxic

structure_notation=NCC1(Cc2noc(=O)[nH]2)CCCCC1 reading=inactive
structure_notation=O=C[O][Al]([O]C=O)[O]C=O reading=inactive
structure_notation=[O]=[Mo](=[O])=[O] reading="0.506% [at 15.8 µM] (inactive)"
structure_notation=[O-][n+]1cccc(/C(Cl)=N/OC[C@@H](O)CN2CCCCC2)c1 reading=inactive

###

Biological target: Cytochrome P450 2D6 (Homo sapiens) (UniProt P10635)
Sequence (P10635 whole entry, looked up): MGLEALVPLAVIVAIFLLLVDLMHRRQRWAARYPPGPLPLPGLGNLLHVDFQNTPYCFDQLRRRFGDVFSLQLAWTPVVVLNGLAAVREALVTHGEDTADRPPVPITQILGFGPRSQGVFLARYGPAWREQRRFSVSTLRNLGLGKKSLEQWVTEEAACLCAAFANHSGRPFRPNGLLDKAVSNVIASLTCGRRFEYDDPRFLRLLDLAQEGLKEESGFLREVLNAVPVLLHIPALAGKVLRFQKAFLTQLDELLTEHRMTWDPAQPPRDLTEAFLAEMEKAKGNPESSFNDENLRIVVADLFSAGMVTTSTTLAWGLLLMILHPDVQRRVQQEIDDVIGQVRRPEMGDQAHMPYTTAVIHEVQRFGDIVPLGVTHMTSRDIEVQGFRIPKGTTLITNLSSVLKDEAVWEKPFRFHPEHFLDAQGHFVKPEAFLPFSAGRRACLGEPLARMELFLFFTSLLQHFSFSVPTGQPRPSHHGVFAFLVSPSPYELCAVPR
Assay: Cytochrome P450 Family 2 Subfamily D Member 6 (CYP2D6) small molecule antagonists: luciferase reporter qHTS assay (AID 1671196); also: nearly all actives have a fitted effect of over 50% in size
Details: P450-Glo CYP2D6 enzyme assay, luciferin luminescence, 1 h; series mostly up to 115 µM
Inconclusive results are not listed. The source made the active and inactive calls. Calls come from the whole dose curve; as a rule, active = well fitted inhibition curve with a large enough effect in the repeat runs; inconclusive = weak or mixed curves; inactive = no such curve, though single readings can be large or run the other way.
Bench note: report the call from active, inactive

Exam item: Outcome? `COc1cc(/C=C/C(N)=O)cc(OC)c1OC`
Marked response: inactive

Exam item: Outcome? `CSc1cnccn1`
Marked response: inactive

Exam item: Outcome? CC(C)NCC(O)c1ccc2ccccc2c1 (centres undefined)
Marked response: active

Exam item: Outcome? `CC(=O)CCc1ccc(OC(C)=O)cc1`
Marked response: inactive
